These entries and their values trace back to paper PMC8869731.

molecular target: UniProtKB A0A0K1H2T0; test: ITC of KasH versus ligands; conditions: ITC binding stoichiometry; KasH, 50 mM MOPS pH 7.5, 100 mM NaCl;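 also: isothermal titration calorimetry at 25 °C, 0.1 mM KasH in the cell titrated with 1 mM ligand over 18 injections, data fit with a one-site binding model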
Sequence (A0A0K1H2T0 entry or part of it): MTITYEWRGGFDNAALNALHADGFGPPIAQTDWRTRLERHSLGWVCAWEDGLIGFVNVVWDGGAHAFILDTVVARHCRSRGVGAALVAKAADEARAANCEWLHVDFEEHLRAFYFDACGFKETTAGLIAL
Measured Metric: n

Compound	Reported Result
CCC(=O)SCCNC(=O)CCNC(=O)[C@H](O)C(C)(C)COP(=O)(O)OP(=O)(O)OC[C@H]1O[C@@H](n2cnc3c(N)ncnc32)[C@H](O)[C@@H]1OP(=O)(O)O [Propionyl-CoA, propionyl-CoA]	0.5
CC(C)(COP(=O)(O)OP(=O)(O)OC[C@H]1O[C@@H](n2cnc3c(N)ncnc32)[C@H](O)[C@@H]1OP(=O)(O)O)[C@@H](O)C(=O)NCCC(=O)NCCS [CoA]	0.6
CC(=O)SCCNC(=O)CCNC(=O)[C@H](O)C(C)(C)COP(=O)(O)OP(=O)(O)OC[C@H]1O[C@@H](n2cnc3c(N)ncnc32)[C@H](O)[C@@H]1OP(=O)(O)O [AcCoA]	1.3
C[C@H]1O[C@H](O[C@H]2[C@H](O)[C@@H](O)[C@@H](O)[C@H](O)[C@@H]2O)[C@@H](N)C[C@@H]1NC(=N)C(=O)O [KSM, Kasugamycin]	1.0
CC(=O)CC(=O)SCCNC(=O)CCNC(=O)[C@H](O)C(C)(C)COP(=O)(O)OP(=O)(O)OC[C@H]1O[C@@H](n2cnc3c(N)ncnc32)[C@H](O)[C@@H]1OP(=O)(O)O [Acetoacetyl-CoA, acetoacetyl-CoA]	0.5
CC(C)CC(=O)SCCNC(=O)CCNC(=O)[C@H](O)C(C)(C)COP(=O)(O)OP(=O)(O)OC[C@H]1O[C@@H](n2cnc3c(N)ncnc32)[C@H](O)[C@@H]1OP(=O)(O)O [Isovaleryl-CoA, isovaleryl-CoA]	1.0
